# credit: ChEMBL document CHEMBL1795212

Test system: Plasmodium falciparum
Test: Antimalarial activity against Plasmodium falciparum W2 assessed as plasmodial LDH activity after 72 hrs
Type: functional, organism-based
Conditions: Plasmodium falciparum, W2, 72 h; read-out: IC50
assayEndpoint: IC50 (µM)
Just the number please, in µM, no unit attached.

Some solved entries appear below for comparison.
# molecule, targetOfAssay, IC50 [µM]
data = [
    ("CCc1ccc(C2OOC(c3ccc(C=O)cc3)OO2)cc1 (centres undefined)", "Plasmodium falciparum", 5.99),
    ("Cc1ccc(C2OOC(c3ccc(C(=O)NCCCNc4ccnc5cc(Cl)ccc45)cc3)OO2)cc1 (centres undefined)", "Plasmodium falciparum", 2.11),
    ("CCCc1ccc(NCc2ccc(C3OOC(c4ccc(C)cc4)OO3)cc2)cc1 (centres undefined)", "Plasmodium falciparum", 4.19),
]

Turning to the following molecule.
### Prompt Which value of IC50 has been reported for Cc1ccc(C2OOC(c3ccc(CNc4ccc(F)cc4)cc3)OO2)cc1 (centres undefined) in the records?
### Response 2.35
